Below, each entry is listed alongside its reported PLATELET COUNT.
Species on record: Rattus norvegicus
Test: DrugMatrix - Regimen: Daily Repeat
Assay type: toxicity, organism-based, Sprague-Dawley
Design: regimen Daily Repeat, gender Male, age 6-8 weeks
Conditions: in vivo, po, 10 mg/kg, 72 h, tissue Blood, route oral GAVAGE, dose level Low, time 3 day, […]
Number only, in x10E3/uL; omit the unit.

Please review the entries below; each comes with its answer.
Quick one: PLATELET COUNT of COCCOC(=O)C1=C(C)NC(C)=C(C(=O)OC(C)C)C1c1cccc([N+](=O)[O-])c1 (centres undefined) ?
1138

Returns the measured PLATELET COUNT for the input compound. Input: COc1ccc2cc([C@H](C)C(=O)O)ccc2c1
1140

GET /values?readout=PLATELET COUNT&item= CC(C)CC(N(C)C)C1(c2ccc(Cl)cc2)CCC1 (centres undefined)
1187.67

Note: attention shifts to another entry.
Given the entry CCOC(=O)C1=C(C)NC(C)=C(C(=O)OC)C1c1cccc([N+](=O)[O-])c1 (centres undefined) , report its measured PLATELET COUNT.
1124

###

Below, each entry is listed alongside its reported SODIUM.
Species: Rattus norvegicus
Assay: DrugMatrix - Regimen: Daily Repeat
Type: toxicity, organism-based, Sprague-Dawley
Parameters: regimen Daily Repeat, gender Male, age 6-8 weeks
Conditions: in vivo, po, 0 mg/kg, 120 h, tissue Plasma, route oral GAVAGE, dose level Control, time 5 day, […]
Respond numerically; units are MEQ/L and should not be typed.

Examples with their reported SODIUM follow.
I have this molecule here, CC(C)Cc1ccc(C(C)C(=O)O)cc1 (centres undefined) [IBUPROFEN] , and I need its recorded SODIUM.
143.17

Consider the molecule O=NN(CCCl)C(=O)NCCCl [CARMUSTINE] and give its measured SODIUM.
142.53

Requested field: SODIUM. Item: CC(=O)Nc1ccc(O)cc1 [ACETAMINOPHEN]
142.53

Attention now turns to another entry.
Fill blank: measured SODIUM of the molecule CC(C)(Oc1ccc(C2CCCc3ccccc32)cc1)C(=O)O (centres undefined) [NAFENOPIN] is ____.
139.37

###

Listed next: entries and their corresponding MEAN CORPUSCULAR HEMOGLOBIN CONCENTRATION.
Species: Rattus norvegicus
Experiment: DrugMatrix - Regimen: Daily Repeat
Type: toxicity, organism-based, Sprague-Dawley
Set-up: regimen Daily Repeat, gender Male, age 6-8 weeks
Settings: in vivo, iv, 0 mg/kg, 120 h, tissue Blood, dose level Control, time 5 day, vehicle 100 % SALINE
Report only the number, with the unit G/DL understood.

# query: MEAN CORPUSCULAR HEMOGLOBIN CONCENTRATION of entry CC(=O)N[C@@H]1[C@H](Oc2c3cc4cc2Oc2ccc(cc2Cl)[C@@H](O[C@@H]2O[C@@H](CO)[C@@H](O)[C@H](O)[C@@H]2NC(C)=O)[C@@H]2NC(=O)[C@H](NC(=O)[C@@H]4NC(=O)[C@H]4NC(=O)[C@@H](Cc5ccc(c(Cl)c5)O3)NC(=O)[C@H](N)c3ccc(O)c(c3)Oc3cc(O)cc4c3)c3ccc(O)c(c3)-c3c(O[C@H]4O[C@H](CO)[C@@H](O)[C@@H](O)[C@@H]4O)cc(O)cc3[C@@H](C(=O)O)NC2=O)O[C@@H](CO)[C@@H](O)[C@@H]1O
36.83

Suppose we examine the compound CCC1=C[C@@H]2CN(C1)Cc1c([nH]c3ccccc13)[C@@](C(=O)OC)(c1cc3c(cc1OC)N(C)[C@H]1[C@@](O)(C(=O)OC)[C@H](OC(C)=O)[C@]4(CC)C=CCN5CC[C@]31[C@@H]54)C2 [VINORELBINE] ; what MEAN CORPUSCULAR HEMOGLOBIN CONCENTRATION value has been reported?
39.3

Others:
// returns reported MEAN CORPUSCULAR HEMOGLOBIN CONCENTRATION for input CC[C@]1(O)C[C@@H]2CN(CCc3c([nH]c4ccccc34)[C@@](C(=O)OC)(c3cc4c(cc3OC)N(C)[C@H]3[C@@](O)(C(=O)OC)[C@H](OC(C)=O)[C@]5(CC)C=CCN6CC[C@]43[C@@H]65)C2)C1 [VINBLASTINE]
38.5
